Assay: Stability of each 7-peptide compound in rat whole blood
Assay type: in vitro ADME
Conditions: rat whole blood, 37° C., 1000 ng/mL, incubation time 2 min; read-out: Recovery rate (%) M±SD

| SUBSTANCE | recovery [%] |
| --- | --- |
| H-GQTYTSG-OH [SP, GQTYTSG, reference compound] | 64.1 |

* * *

Test: Plasma drug concentrations and pharmacokinetics after a single intravenous or subcutaneous injection of SIPI-G9 in SD rats
Details: male, SD, rat, plasma, sc, 5 mg/kg, Plasma G-9 concentration, Mean, SIPI-G9 5 mg/kg s.c., SD rats, 60 min, n=3
Peptide text beside a SMILES is read from it. * marks the point of attachment. X1 = CC(=O)N[C@H]1C(*)O[C@H](CO)[C@@H](O)[C@@H]1O
REPORTED ENDPOINT: level at 1 h (ng/mL)

| COMPOUND | READING |
| --- | --- |
| CC(=O)N[C@H]1C(OC[C@H](NC(=O)[C@@H](NC(=O)[C@H](Cc2ccc(O)cc2)NC(=O)[C@@H](NC(=O)[C@H](CCC(N)=O)NC(=O)CN)[C@@H](C)OC2O[C@H](CO)[C@@H](O)[C@H](O)[C@H]2NC(C)=O)[C@@H](C)O)C(=O)NCC(=O)O)O[C@H](CO)[C@@H](O)[C@@H]1O (stereo partly shown) [SIPI-G9, GQT(Glc)YTS(Glc)G] (H-GQT(X1)YTS(X1)G-OH) | 131 |

* * *

Assay: in vivo
Conditions: rat, in vivo, sc, 5 mg/kg, Tmax, Mean
Peptide text beside a SMILES is read from it. * marks the point of attachment. X1 = CC(=O)N[C@H]1C(*)O[C@H](CO)[C@@H](O)[C@@H]1O

| COMPOUND | Tmax |
| --- | --- |
| CC(=O)N[C@H]1C(OC[C@H](NC(=O)[C@@H](NC(=O)[C@H](Cc2ccc(O)cc2)NC(=O)[C@@H](NC(=O)[C@H](CCC(N)=O)NC(=O)CN)[C@@H](C)OC2O[C@H](CO)[C@@H](O)[C@H](O)[C@H]2NC(C)=O)[C@@H](C)O)C(=O)NCC(=O)O)O[C@H](CO)[C@@H](O)[C@@H]1O (stereo partly shown) [SIPI-G9, GQT(Glc)YTS(Glc)G] (H-GQT(X1)YTS(X1)G-OH) | 7 min |

* * *

Experiment: Plasma drug concentrations and pharmacokinetics after a single subcutaneous injection of SP peptide or SIPI-D00 peptide in SD rats
Type: in vivo
Settings: rat, in vivo, sc, 10 mg/kg
REPORTED ENDPOINT: AUC(0-inf)

| SUBSTANCE | REPORTED ENDPOINT | READING |
| --- | --- | --- |
| H-GQTYTSG-OH [SP, GQTYTSG, reference compound] | AUC(0-inf) | 11.9 ng·h/mL |

* * *

Experiment: Plasma drug concentrations and pharmacokinetics after a single subcutaneous injection of SP peptide or SIPI-D00 peptide in SD rats
Assay type: in vivo
Details: male, SD, rat, plasma, sc, 10 mg/kg, SP peptide 10 mg/kg s.c., SD rats, time 0.5 min, parallels 1-4; read-out: Plasma concentration
REPORTED ENDPOINT: level at 0.5 min (ng/mL)

| SUBSTANCE | READING |
| --- | --- |
| H-GQTYTSG-OH [SP, GQTYTSG, reference compound] | 74.2 |
